# credit: ChEMBL document CHEMBL1821661

A set of molecules tested on Aurora kinase A (Homo sapiens), with measured log10(IC50):
log10 IC50, nM

CS(=O)(=O)N(CCN1CCOCC1)c1ccc(Nc2ncc3cnn(C4CCCCCC4)c3n2)cc1
1.15
CS(=O)(=O)N(CCN1CCCC1)c1ccc(Nc2ncc3cnn(C4CCCCCC4)c3n2)cn1
2.54
CS(=O)(=O)N(CCO)c1ccc(Nc2ncc3cnn(C4CCCCCC4)c3n2)cc1
1.11

Hey, can you go through the list below and give me log10(IC50) for every item?
1. CN(C)CCN(c1ccc(Nc2ncc3cnn(C4CCCCCC4)c3n2)cn1)S(C)(=O)=O
2. CS(=O)(=O)N(CCO)c1ccc(Nc2ncc3cnn(C4CCCCCC4)c3n2)cn1

Return:
2.41
2.04

Batch lookup, log10(IC50) per entry.
1. CS(=O)(=O)N(CCCN1CCCCC1)c1ccc(Nc2ncc3cnn(C4CCCCCC4)c3n2)cc1
2. CC(C)N(c1ccc(Nc2ncc3cnn(C4CCCCCC4)c3n2)cc1)S(C)(=O)=O
3. CS(=O)(=O)N(Cc1ccncc1)c1ccc(Nc2ncc3cnn(C4CCCCCC4)c3n2)cc1

Return:
[0.95, 0.70, 1.48]

---

Experiment Summary: Hepatic blood flow in human liver microsomes assessed as compound remaining at 1.0 uM pre incubated for 5 mins at pH 7.4 by LC/MS/MS analysis
Assay type: ADME, Microsome
Assay Context: read-out: QH
Exercise: for every item that follows, state its recorded hepatic extraction ratio at 5 min, 1 µM.
Give bare numbers.

Would you mind giving hepatic extraction ratio at 5 min, 1 µM for every molecule in the list below?
1. CS(=O)(=O)Nc1ccc(Nc2ncc3cnn(C4CCCCCC4)c3n2)cn1
2. CS(=O)(=O)N(CCN1CCOCC1)c1ccc(Nc2ncc3cnn(C4CCCCCC4)c3n2)cc1

Return:
0.39
0.95

---

Tested System: hERG (KCNH2) (Homo sapiens)
Sequence (Q12809 whole entry): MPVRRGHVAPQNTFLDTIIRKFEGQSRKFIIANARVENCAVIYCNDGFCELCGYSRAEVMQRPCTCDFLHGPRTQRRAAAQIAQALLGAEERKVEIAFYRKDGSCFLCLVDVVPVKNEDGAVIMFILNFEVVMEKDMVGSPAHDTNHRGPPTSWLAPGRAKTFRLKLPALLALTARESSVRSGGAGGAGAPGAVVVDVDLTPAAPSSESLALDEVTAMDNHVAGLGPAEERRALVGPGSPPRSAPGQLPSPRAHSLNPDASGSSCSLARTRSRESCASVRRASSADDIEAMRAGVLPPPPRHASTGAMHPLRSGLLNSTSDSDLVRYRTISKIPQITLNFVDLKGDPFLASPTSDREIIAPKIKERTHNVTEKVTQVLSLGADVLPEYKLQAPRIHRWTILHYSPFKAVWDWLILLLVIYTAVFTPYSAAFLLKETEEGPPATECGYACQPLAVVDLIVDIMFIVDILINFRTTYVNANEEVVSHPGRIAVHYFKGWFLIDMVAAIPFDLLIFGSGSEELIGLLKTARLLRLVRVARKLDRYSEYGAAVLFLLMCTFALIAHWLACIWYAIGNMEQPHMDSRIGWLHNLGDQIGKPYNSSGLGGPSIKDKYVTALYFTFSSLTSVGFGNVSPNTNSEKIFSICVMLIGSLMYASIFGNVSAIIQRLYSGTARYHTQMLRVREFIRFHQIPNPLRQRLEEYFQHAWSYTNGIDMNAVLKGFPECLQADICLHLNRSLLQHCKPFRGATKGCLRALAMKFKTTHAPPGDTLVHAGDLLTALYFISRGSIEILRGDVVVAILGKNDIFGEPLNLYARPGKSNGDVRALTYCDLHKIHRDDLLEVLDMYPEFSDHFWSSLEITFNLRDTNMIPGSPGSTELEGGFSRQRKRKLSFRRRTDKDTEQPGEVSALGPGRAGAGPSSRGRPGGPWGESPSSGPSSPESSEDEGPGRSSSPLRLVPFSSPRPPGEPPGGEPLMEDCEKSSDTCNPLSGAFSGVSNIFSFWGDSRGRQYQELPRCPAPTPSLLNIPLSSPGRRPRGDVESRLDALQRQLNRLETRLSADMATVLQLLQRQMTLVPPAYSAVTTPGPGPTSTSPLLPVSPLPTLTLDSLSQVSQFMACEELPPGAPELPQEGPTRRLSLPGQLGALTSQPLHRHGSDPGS
Experiment Summary: Inhibition of human ERG up to 10 uM by patch clamp method
Experimental Readout: inhibition at up to 10 uM (%)
Numbers only, in %.

CS(=O)(=O)N(CCN1CCOCC1)c1ccc(Nc2ncc3cnn(C4CCCCCC4)c3n2)cc1
40

Enquiry: # assay system hERG (KCNH2) (Homo sapiens): give inhibition at up to 10 uM of CS(=O)(=O)Nc1ccc(Nc2ncc3cnn(C4CCCCCC4)c3n2)cn1
Return: 6.5

---

Tested System: Cyclin-dependent kinase 1/cyclin B1 (Homo sapiens, UniProt P06493)
Sequence (P06493 whole entry): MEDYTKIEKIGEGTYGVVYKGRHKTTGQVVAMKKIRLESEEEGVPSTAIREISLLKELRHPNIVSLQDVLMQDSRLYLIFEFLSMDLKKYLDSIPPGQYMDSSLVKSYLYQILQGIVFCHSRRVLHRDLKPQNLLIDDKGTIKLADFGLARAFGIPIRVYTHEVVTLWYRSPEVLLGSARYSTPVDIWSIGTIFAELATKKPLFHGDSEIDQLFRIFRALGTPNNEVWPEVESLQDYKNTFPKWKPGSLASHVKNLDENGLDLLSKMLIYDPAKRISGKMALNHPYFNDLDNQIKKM
Sequence (P14635 whole entry, further chain): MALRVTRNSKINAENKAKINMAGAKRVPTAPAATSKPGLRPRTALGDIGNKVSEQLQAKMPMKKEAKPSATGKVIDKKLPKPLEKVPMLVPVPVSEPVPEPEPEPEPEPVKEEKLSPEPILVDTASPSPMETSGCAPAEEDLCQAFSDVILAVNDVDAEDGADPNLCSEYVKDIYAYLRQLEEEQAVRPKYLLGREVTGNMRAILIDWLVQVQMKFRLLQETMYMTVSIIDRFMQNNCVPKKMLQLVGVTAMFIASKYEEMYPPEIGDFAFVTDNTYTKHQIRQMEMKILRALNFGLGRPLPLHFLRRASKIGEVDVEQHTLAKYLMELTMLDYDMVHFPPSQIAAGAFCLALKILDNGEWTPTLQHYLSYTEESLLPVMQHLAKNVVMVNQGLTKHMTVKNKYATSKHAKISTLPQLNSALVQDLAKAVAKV
Experiment Summary: Inhibition of CDK1/Cyclin B assessed as phosphorylation of Z-lyte Peptide at […] by FRET assay
Type: protein-complex assay
Experimental Readout: log10(IC50) (log10 of the value in nM)
Response schema: value (number) is log10 of IC50 in units of nM.

Some solved cases for reference:
CS(=O)(=O)Nc1ccc(Nc2ncc3cnn(C4CCCCCC4)c3n2)cn1
0.85
CS(=O)(=O)N(Cc1ccncc1)c1ccc(Nc2ncc3cnn(C4CCCCCC4)c3n2)cn1
1.11
CS(=O)(=O)N(CCN1CCCC1)c1ccc(Nc2ncc3cnn(C4CCCCCC4)c3n2)cn1
1.00
CS(=O)(=O)N(CCN1CCOCC1)c1ccc(Nc2ncc3cnn(C4CCCCCC4)c3n2)cc1
1.36
CS(=O)(=O)N(CCN)c1ccc(Nc2ncc3cnn(C4CCCCCC4)c3n2)cn1
0.48
CS(=O)(=O)N(CCCN1CCOCC1)c1ccc(Nc2ncc3cnn(C4CCCCCC4)c3n2)cc1
0.70
CS(=O)(=O)N(CCO)c1ccc(Nc2ncc3cnn(C4CCCCCC4)c3n2)cn1
0.60
CN(C)CCN(c1ccc(Nc2ncc3cnn(C4CCCCCC4)c3n2)cn1)S(C)(=O)=O
1.00
CS(=O)(=O)N(CCCN1CCCCC1)c1ccc(Nc2ncc3cnn(C4CCCCCC4)c3n2)cc1
0.78
CC(C)N(c1ccc(Nc2ncc3cnn(C4CCCCCC4)c3n2)cc1)S(C)(=O)=O
1.95

Each compound below has a reported value. Please supply its log10(IC50).
1. CS(=O)(=O)N(CCCO)c1ccc(Nc2ncc3cnn(C4CCCCCC4)c3n2)cc1
2. CS(=O)(=O)N(CCN1CCOCC1)c1ccc(Nc2ncc3cnn(C4CCCCCC4)c3n2)cn1
3. CS(=O)(=O)N(CCO)c1ccc(Nc2ncc3cnn(C4CCCCCC4)c3n2)cc1
4. CS(=O)(=O)N(Cc1ccncc1)c1ccc(Nc2ncc3cnn(C4CCCCCC4)c3n2)cc1
5. CS(=O)(=O)N(CCN)c1ccc(Nc2ncc3cnn(C4CCCCCC4)c3n2)cc1

Return:
[0.78, 1.49, 0.70, 1.36, 0.70]
